Assay read-out pIC50; system under study: human 15-PGDH (Homo sapiens, UniProt P15428).
pIC50: −log10 of the molar value.

# annotated cases, reported pIC50 shown
O=C(c1cnn2c(-c3cnc(-c4nnc(C(F)(F)F)o4)c(F)c3)cccc12)N1CCCCC1 | ≥ 7.00
N#Cc1ccc(-c2cccc3c(C(=O)N4CCCCC4)cnn23)cc1F | ≥ 7.00

Provide pIC50 for all items below, preserving their order.
1. O=C(COc1ccc(Cl)cc1)Nc1ccc(-c2cccc3c(C(=O)N4CCCCC4)cnn23)cn1
2. O=C(Cc1cccnc1)Nc1ccc(-c2cccc3c(C(=O)N4CCCCC4)cnn23)cc1
3. O=C(c1cnn2c(-c3ccccc3)cccc12)N1C2CCC1CC2
4. O=C1NCc2ccc(-c3cccc4c(C(=O)N5CC6(CCC6)C5)cnn34)cc21

Result:
≥ 7.00
≥ 7.00
≥ 7.00
≥ 7.00

Provide pIC50 for all items below, preserving their order.
1. O=C(c1cncc(-c2cccc3c(C(=O)N4CCCCC4)cnn23)c1)N1CC(F)(F)C1
2. COC(=O)C1CN(c2ccc(-c3cccc4c(C(=O)N5CCCCC5)cnn34)cn2)C1

Result:
≥ 7.00
≥ 7.00

====

- Assayed System: human 15-PGDH (Homo sapiens, UniProt P15428)
Hi there, I'd appreciate the recorded IC50 for every entry that follows.

# annotated cases, reported IC50 shown
O=C(c1cnn2c(-c3cccc(-c4nnn[nH]4)c3)cccc12)N1CCCCC1 [Example 113] | ≤ 100 nM
O=C(c1cnn2c(-c3ccc(Cl)cc3)cccc12)N1CCCCC1 [Example 12] | ≤ 100 nM
O=C(Nc1cccnc1)c1ccc(-c2cccc3c(C(=O)N4CCCCC4)cnn23)cc1 [Example 71] | ≤ 100 nM
O=C(c1cnn2c(-c3ccc4occc4c3)cccc12)N1CCCCC1 [Example 127] | ≤ 100 nM
Nc1ccc(-c2cccn3c(C(=O)N4CCCCC4)cnc23)cc1 [Example 164] | > 1000 nM
COc1ccc(-c2cccc3c(C(=O)N4CCCCC4)nnn23)cc1 [Example 168] | 100 to 1000 nM

Provide IC50 for all items below, preserving their order.
1. O=C(c1cnc2c(-c3ccc([N+](=O)[O-])cc3)cccn12)N1CCCCC1 [Example 163]
2. O=C(c1cnn2c(-c3cccc(-c4noc(=O)[nH]4)c3)cccc12)N1CCCCC1 [Example 115]
3. O=C(c1cnn2c(-c3ccc(N4CC(F)(F)C4)nc3)cccc12)N1CCCCC1 [Example 209]

Result:
["≤ 100 nM", "≤ 100 nM", "≤ 100 nM"]

====

- Assayed System: human 15-PGDH (Homo sapiens)
- Sequence (P15428 1-266): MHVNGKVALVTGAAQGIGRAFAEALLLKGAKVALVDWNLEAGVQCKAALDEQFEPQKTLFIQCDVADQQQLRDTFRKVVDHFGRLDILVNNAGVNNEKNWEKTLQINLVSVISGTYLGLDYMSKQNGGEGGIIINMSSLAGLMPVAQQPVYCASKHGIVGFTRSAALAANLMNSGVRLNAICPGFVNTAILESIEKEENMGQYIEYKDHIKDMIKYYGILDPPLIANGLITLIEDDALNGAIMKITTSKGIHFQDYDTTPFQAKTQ
Hi there, I'd appreciate the recorded IC50 for every entry that follows.

Cn1nccc1-c1cc(-c2cccc3c(C(=O)N4CCCCC4)cnn23)cc(N2CCOCC2)n1 [Example 369] | ≤ 0.1 µM

Provide IC50 for all items below, preserving their order.
1. O=C(c1cnn2c(-c3cncc([N+](=O)[O-])c3)cccc12)N1CCCCC1 [Example 318]
2. Cn1nc2ccc(-c3cccc4c(C(=O)N5CCCCC5)cnn34)cn2c1=O [Example 246]
3. O=C(Nc1cccnc1)c1cncc(-c2cccc3c(C(=O)N4CCCCC4)cnn23)c1 [Example 53]
4. O=C(c1cncc(-c2cccc3c(C(=O)N4CCCCC4)cnn23)c1)N1CC(=NO)C1 [Example 230]
5. O=C(c1ccc(-c2cccc3c(C(=O)N4CCCCC4)cnn23)cn1)N1CC(F)(F)C1 [Example 237]
6. O=C(c1cnn2c(-c3ccc(-c4noc(=O)[nH]4)cc3F)cccc12)N1CCCCC1 [Example 295]
7. Nc1n[nH]c2cc(-c3cccc4c(C(=O)N5CCCCC5)cnn34)ccc12 [Example 309]

Result:
≤ 0.1 µM
≤ 0.1 µM
≤ 0.1 µM
≤ 0.1 µM
≤ 0.1 µM
≤ 0.1 µM
≤ 0.1 µM
